# target.entity: G6PDH (glucose-6-phosphate dehydrogenase) (Rattus norvegicus, UniProt P05370)
# Construct: native cytosolic enzyme in soluble lysate supernatant of primary astrocyte-rich cultures; not purified
# Sequence (P05370 2-515): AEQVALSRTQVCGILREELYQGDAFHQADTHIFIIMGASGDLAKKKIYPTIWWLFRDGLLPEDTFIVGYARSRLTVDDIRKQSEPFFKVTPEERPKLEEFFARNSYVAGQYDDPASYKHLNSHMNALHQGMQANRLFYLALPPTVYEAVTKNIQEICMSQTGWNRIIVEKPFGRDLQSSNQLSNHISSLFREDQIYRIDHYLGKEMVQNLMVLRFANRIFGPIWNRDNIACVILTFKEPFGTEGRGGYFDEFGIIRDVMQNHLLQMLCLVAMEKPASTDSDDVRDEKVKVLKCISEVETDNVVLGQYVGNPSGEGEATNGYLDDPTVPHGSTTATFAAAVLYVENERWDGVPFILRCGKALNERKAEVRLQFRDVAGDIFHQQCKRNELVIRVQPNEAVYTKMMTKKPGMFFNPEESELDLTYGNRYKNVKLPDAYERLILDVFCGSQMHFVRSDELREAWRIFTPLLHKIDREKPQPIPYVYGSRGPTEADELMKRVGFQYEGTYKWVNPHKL
# test.summary: NADPH absorbance at […] nm in astrocyte lysate
# stated.conditions: 3.3 mM G6P, 0.2 mM NADP+, 6.3 mM MgCl2, 5 mM maleimide, pH 7.5, room temperature; read-out: half-maximal inhibition
experimental.endpoint: IC50 (µM)

1. C[C@]12CC[C@H](O)CC1=CC[C@@H]1[C@@H]2CC[C@]2(C)C(=O)CC[C@@H]12
9.2

The reported numbers originate from paper PMC10471714.
